src = PubChem BioAssay (NCI)

Tested on: SK-OV-3 ovarian
test_protocol: NCI-60 one-dose screen, 48 h (100 = growth as untreated, 0 = no growth, -100 = all killed)
particulars: 10 µM unless noted
About 83,000 compounds went through this panel and 20% of them were active in at least one assay; those are over-represented in the sample as a whole.
This listing pairs compounds with measured growth.
quantity_name: growth (%)

>>> measured_number("O=C(/C=C/C12c3ccccc3C(c3ccccc31)C1C(=O)NC(=O)C12)c1ccc(I)cc1 (stereo unspecified)")
83
>>> measured_number("O=C1CCCC1[n+]1ccccc1 (stereo unspecified)")
80.1
>>> measured_number("O=[N+]([O-])c1ccccc1Nc1ccc2ccccc2c1")
84.7
>>> measured_number("c1ccc(Cn2cc3c(c2-c2ccccc2)CCc2cnoc2-3)cc1")
88
>>> measured_number("CCN(CC)CCn1c2ccc(OC)cc2c2sc3cc(O)ccc3c(=O)c21")
52.3
>>> measured_number("CCOC(=O)CC1CSC(N/N=C/c2ccc(F)c(Br)c2)=N1 (stereo unspecified)")
95.3
>>> measured_number("CN1C(=O)/C(=C/c2ccc(C(=O)Nc3ncc(Cc4cc(Cl)ccc4Cl)s3)cc2)SC1=S")
71.1
>>> measured_number("CC(O)Cc1c[nH]c(=O)[nH]c1=O (stereo unspecified)")
29.3
>>> measured_number("O=C1NC(=O)C(c2coc3cc(Br)ccc23)=C1c1c[nH]c2ccccc12")
55.6
>>> measured_number("N#CSc1c[nH]c2ccc(/C=C/C(=O)/C=C(O)/C=C/c3ccc4[nH]cc(SC#N)c4c3)cc12")
100
>>> measured_number("OC1(c2ccccc2)c2ccccc2N(c2ccccc2)c2ccc(Cl)cc21 (stereo unspecified)")
-89.3
